// reported melting point per item

{"compound": "COC(=O)c1ccc(C(=O)c2ccc(CCl)cc2)cc1", "melting point": "122 to 125 °C"}
{"compound": "COc1cc2c(cc1OC)-c1cc(N(c3c(C)cc(C)cc3C)C(C)C)nc(=O)n1CC2", "melting point": "182 to 183 °C"}
{"compound": "O=C(Nc1ccc(O)c(C(=O)O)c1)c1ccc([N+](=O)[O-])cc1", "melting point": "270 to 271 °C"}
{"compound": "CN(C)Cc1nnc(CN2C(=O)c3ccccc3C2=O)n1-c1ccc(Cl)cc1C(=O)c1ccccc1", "melting point": "206 to 208 °C"}
{"compound": "CN(C)S(=O)(=O)c1cc2c(c(C(=O)O)c1)OCCO2", "melting point": "220 to 221 °C"}
{"compound": "CC(C)(C)c1noc(NS(=O)(=O)c2ccccc2)c1Br", "melting point": "108 to 109 °C"}
{"compound": "FC(F)(F)C(/C=C/c1ccc(-n2cncn2)cc1)c1cc(Cl)cc(Cl)c1 (stereo unspecified)", "melting point": "93 to 97 °C"}
{"compound": "Cc1cccc(C(=O)Cc2ccnc(NC(=O)OC(C)(C)C)c2)c1", "melting point": "144 to 146 °C"}
{"compound": "COn1c(C)nc2c(NCc3c(C)cccc3C)cc(Br)cc21", "melting point": "171 to 172 °C"}
{"compound": "CC(C)n1cc(C(=O)Nc2nccs2)c2ccc(O)cc21", "melting point": "239 to 241 °C"}

Recorded melting point (compound CCn1c(N)c(C(=O)NC)c(=O)c2ccc(-c3ccc(NS(=O)(=O)c4cccc(Cl)c4Cl)c(F)c3)nc21 ): 333 °C

Sure, the documented melting point for CNC1([C@@H]2CCN(c3ccc4c(=O)c(C(=O)O)cn(C5CC5)c4c3C)C2)CC1 is 190 to 192 °C

melting point reported for this compound COC(=O)c1ccc(Cc2cn(C)c3ccc(NC(=O)NC4CCCC4)cc23)c(OC)c1 : 210 to 212 °C

Looking up O=C(O)c1ccc(C(=O)/C=C/c2ccc(F)c(-c3cccs3)c2)cc1 , I see its melting point listed as 242 to 244 °C

melting point recorded for this compound, C[C@@H]1CCCN1CCCOc1ccc(-c2ccc(S(=O)(=O)Cc3ccccc3)nn2)cc1 , is 136 °C

Documented melting point of O=c1c2ccccc2nnn1CCCN1CC=C(c2c[nH]c3ccccc23)CC1 : 189 °C

====

The compounds listed here are annotated with their melting point.

{"compound": "CCOC(=O)c1cc2c(Cl)cccc2n1[C@H](C)CNC(=O)OC(C)(C)C", "test value": "115 to 119 °C"}

Memo: CC(C)(Sc1nnnn1-c1ccccc1)c1ccc([N+](=O)[O-])cc1 , reported melting point: 122 °C

Record CCCCCC#CCOc1ccc2ccc(=O)oc2c1 . Reported melting point: 74 to 75 °C

Memo: CCc1noc(NC(=O)N2CCN(c3ccnc(-c4cccc(F)c4F)n3)CC2)c1C , reported melting point: 188 to 189 °C

Recorded result, O=C(C=C1SC(Nc2c(Cl)cccc2Cl)=NC1=O)NCc1ccccc1 , melting point: 205 to 206 °C

Field melting point (entry CCOC(=O)Cn1c(C(=O)NCc2nnc(C)n2-c2sc(CC)cc2C(=O)c2ccccc2Cl)cc2ccccc21 ) reads 138 to 140 °C

N=C(N)Nc1nc(-c2cccc([N+](=O)[O-])c2)no1 yielded melting point of 290 to 291 °C

get_value(item= O=C(CC12CC3CC(CC(C3)C1)C2)Nc1c(Cl)ccc2nc(N3CCNCC3)ccc12 , readout=melting point) returns 280 to 283 °C

Entry N#Cc1c(-c2ccc(Cl)c(Cl)c2)[nH]c(C(F)(F)F)c1Cl ; melting point = 239 to 241 °C

Entry source: a melting point compilation (Tetko et al.; mined from patent text by program, amines drawn as free bases though some values may be those of a salt)
